Test system: Noggin (protein binding on small-molecule microarray)
Experiment: Noggin binders on small-molecule microarray, primary screen, biochemical, 635/667 nm fluorescence (AID 1095);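 further: score merges 667 nm feature fluorescence with signal to noise over triplicate slides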
Conditions: 635 nm fluorescence, higher = more signal
Outcome: 1 for composite z-score of at least 0.4; -1 for anything lower.

compound	class name
CC(C)CON=C1C[C@@H](O)[C@@H](O)[C@@H]2[C@@H]3C(=O)N(C(C)(C)C)C(=O)[C@@H]3CC[C@H]12	-1

### Prompt Form field: composite z-score at least 0.4? Entry: `C[n+]1ccc(-c2ccc(CO)cc2)cc1`
### Response 1

### Prompt Form field: composite z-score at least 0.4? Entry: `CCOC(=O)C1=NO[C@@]2(C=C(Br)C3(OCCCO3)[C@H]3O[C@H]32)C1`
### Response 1

### Prompt Form field: composite z-score at least 0.4? Entry: `CC(C)=CCCC(C)=CCON=C1C[C@@H](O)[C@@H](O)[C@@H]2[C@@H]3C(=O)N(C(C)(C)C)C(=O)[C@@H]3CC[C@@H]12`
### Response -1

### Prompt Form field: composite z-score at least 0.4? Entry: COC(=O)CC=C[C@@H](C)[C@@H](C=NOC(C)CN1CCCc2nc(C)c(C)cc21)OC (stereo not given in full)
### Response 1

### Prompt Form field: composite z-score at least 0.4? Entry: `O=C1[C@H]2[C@H]3[C@H](O)[C@H](O)CC(=NOC[C@@H](O)COCc4ccco4)[C@H]3CC[C@H]2C(=O)N1Cc1ccccc1`
### Response 1
